Recorded TGI by entry
- Tested on: ACHN renal
- assay explanation: NCI tumour cell line growth inhibition, 48 h

molecule | measured target | TGI
O=C(CCCN1CCC2(CC1)CC(=O)N(N1CCCCCC1)C2=O)c1ccccc1 | ACHN renal | > 100 µM
CCC12CCCN(Cc3ccccc3)C1c1c(n(C)c3ccccc13)C(C(=O)OC)C2 (stereo not given) | ACHN renal | > 239 µM
COc1cccc2c1Cc1cc(-c3ccccc3)[n+](C)n1-2 | ACHN renal | 79.9 µM
COc1cccc2c1C(=O)c1c(O)c3c(c(O)c1C2=O)CC(O)(C(O)CO)CC3OC1CC(N2CCOCC2)C(O)C(C)O1 (stereo not given) | ACHN renal | 0.122 µM
COc1ccc(C(=O)c2sc(Nc3ccc(Cl)cc3)nc2N)cc1 | ACHN renal | > 87.7 µM
COc1ccc(-c2nc(/C=N/Nc3cc(C)nc4ccc(Cl)cc34)c(C)o2)cc1 | ACHN renal | 3.2 µM
CN(C)C(=S)/N=c1\ssc(=S)n1Cc1ccccc1 | ACHN renal | > 56.2 µM
O=C1NC2(CCCCCC2)C2CCCCCCC12O (stereo not given) | ACHN renal | > 100 µM
Cc1ccc(/C=C/c2nnc(N/N=C/c3ccc4c(c3)OCO4)[nH]c2=O)cc1 | ACHN renal | 65.6 µM

Then there is this molecule:
Enquiry: Request body: readout TGI, system ACHN renal, query `O=c1c2ccccc2c(=O)n2n1CC=CC2` . Return the value.
Return: > 100 µM

###

- Test system: RXF 393 renal
- assay explanation: NCI tumour cell line growth inhibition, 48 h
The threshold is inclusive: TGI of exactly 30 µM counts as 1 (yes); values below receive 0 (no).

# count of solved cases: 4
molecule | classification
CC1=CC(=O)c2ccccc2C1=O | 0 (no)
Cc1cc(C(=C2C=CC(=Nc3ccccc3)C=C2)c2ccc(Nc3ccccc3)cc2)ccc1N | 0 (no)
CC(=O)OC[C@]12CC[C@@H](C(=O)CBr)[C@@H]1[C@H]1CC[C@@H]3[C@@]4(C)CCCNC(C)(C)[C@@H]4CC[C@@]3(C)[C@]1(C)CC2 | 0 (no)
CCCCC[C@H]1C/C=C2/C(=O)C=C[C@@H]2C/C=C\CCCC(=O)O[C@@H](CCCCC)C/C=C2/C(=O)C=C[C@@H]2C/C=C\CCCC(=O)O1 | 0 (no)

Enquiry: Could you please find out whether `Cc1cc(NCCN(C(C)C)C(C)C)nc(/N=C(\N)Nc2ccc(Cl)c(C(F)(F)F)c2)n1` has TGI that meets 30 µM or exceeds it?
Return: 0 (no)

Enquiry: Could you please find out whether `NC(=O)c1cc2ccc(O)cc2oc1=Nc1ccccc1` has TGI that meets 30 µM or exceeds it?
Return: 1 (yes)

Enquiry: Could you please find out whether `O=C(/C=C/c1ccccc1)NNC(=O)c1c(Cl)c(Cl)c(Cl)c(Cl)c1-c1nc2ccccc2[nH]1` has TGI that meets 30 µM or exceeds it?
Return: 1 (yes)

Enquiry: Could you please find out whether CCC(C)C1=C(OC(C)=O)[N+]2([O-])Oc3ccc(-c4c(OC(C)=O)c(OC(C)=O)c(-c5ccc(OC(C)=O)cc5)c(OC(C)=O)c4OC(C)=O)cc3OC2(C(C)CC)C(=O)N1OC(C)=O (centres undefined) has TGI that meets 30 µM or exceeds it?
Return: 1 (yes)

Enquiry: Could you please find out whether `O=c1oc(Cl)c(Cl)c2ccccc12` has TGI that meets 30 µM or exceeds it?
Return: 1 (yes)

Enquiry: Could you please find out whether `Nc1cccc(/C=C/C(=O)N2CCN(CCOC(c3ccccc3)c3ccccc3)CC2)c1` has TGI that meets 30 µM or exceeds it?
Return: 0 (no)

Enquiry: Could you please find out whether `O=C(CC(=O)C1=CNc2ccccc2S1)C(=O)Nc1ccc(Cl)cc1` has TGI that meets 30 µM or exceeds it?
Return: 1 (yes)

Enquiry: Could you please find out whether `COc1nc(C#CC2(O)CCCCC2)nc(OC)n1` has TGI that meets 30 µM or exceeds it?
Return: 0 (no)

Enquiry: Could you please find out whether `C[C@H](CCC(=O)O)[C@H]1CC[C@@]2(C)[C@@H]3C(=O)C[C@H]4C(C)(C)[C@@H](O)CC[C@]4(C)[C@H]3C(=O)C[C@]12C` has TGI that meets 30 µM or exceeds it?
Return: 1 (yes)

Enquiry: Could you please find out whether Fc1ccc(C(OCCN2CCC3CCC(C2)N3C/C=C/c2ccco2)c2ccc(F)cc2)cc1 (centres undefined) has TGI that meets 30 µM or exceeds it?
Return: 0 (no)
